- experiment: in vivo
- condition_description: Balb/c, mouse, po, 10 mg/kg
outcome_measure: Cmax (ng/mL)

[a] C[C@@H]1CN(c2scnc2-c2nc3ccccc3[nH]2)CCN1C(=O)Cn1cnc2cccnc21
[b] CCOc1ncc(-c2nc(C(F)(F)F)sc2N2CCN(C(=O)Cn3nc(C)nc3C)[C@H](C)C2)cn1
[c] CCOc1ncc(-c2nc(C(F)(F)F)sc2N2CCN(C(=O)Cn3cnc4cccnc43)[C@H](C)C2)cn1
QUERY: Sort entries by Cmax from minimum to maximum value. Order the labels as requested and give them as your answer.
RESULT: a, c, b
(a: 95.2 ng/mL, c: 1800 ng/mL, b: 11600 ng/mL)

* * *

- experiment: in vivo
- condition_description: Wistar, rat, po, 2 mg/kg
outcome_measure: Tmax (min)

smiles_input: Cc1nc(C)n(CC(=O)N2CCN(c3sc(C(F)(F)F)nc3-c3cnc(C(F)(F)F)nc3)C[C@H]2C)n1
unit_symbol: min
Tmax: 30
//
smiles_input: CCOc1ncc(-c2nc(C(F)(F)F)sc2N2CCN(C(=O)Cn3nc(C)nc3C)[C@H](C)C2)cn1
unit_symbol: min
Tmax: 30
//
smiles_input: Cc1nc(C)n(CC(=O)N2CCN(c3sc(C(F)(F)F)nc3-c3cnc(OC(C)C)nc3)C[C@H]2C)n1
unit_symbol: min
Tmax: 30
//
smiles_input: C[C@@H]1CN(c2sc(C(F)(F)F)nc2-c2nc3ccccc3[nH]2)CCN1C(=O)Cn1cnc2cccnc21
unit_symbol: min
Tmax: 36

* * *

- target_system: C-X-C chemokine receptor type 3 (Homo sapiens, UniProt P49682)
- Sequence (P49682 whole entry): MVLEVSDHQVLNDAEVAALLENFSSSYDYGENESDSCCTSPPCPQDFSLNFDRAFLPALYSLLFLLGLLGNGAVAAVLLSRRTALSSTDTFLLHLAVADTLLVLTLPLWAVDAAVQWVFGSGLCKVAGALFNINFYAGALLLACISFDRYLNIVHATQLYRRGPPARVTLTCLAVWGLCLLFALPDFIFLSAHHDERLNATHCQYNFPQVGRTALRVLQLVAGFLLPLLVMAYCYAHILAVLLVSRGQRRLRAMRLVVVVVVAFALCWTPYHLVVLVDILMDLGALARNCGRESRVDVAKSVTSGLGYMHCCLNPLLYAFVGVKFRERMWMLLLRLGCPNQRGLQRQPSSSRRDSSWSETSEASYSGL
pIC50: −log10 of the molar value.
outcome_measure: pIC50

[I] O=C(Cn1cnc2cccnc21)N1CCN(c2ccccc2-c2nc3ccccc3[nH]2)CC1
[II] CCOc1ccc(-c2nc(C(F)(F)F)sc2N2CCN(C(=O)Cn3nc(C)nc3C)[C@H](C)C2)cn1
[III] CCOc1ncc(-c2nc(C(F)(F)F)sc2N2CCN(C(=O)Cn3cnc4cccnc43)[C@H](C)C2)cn1
[IV] C[C@@H]1CN(c2sc(Br)nc2-c2nc3ccccc3[nH]2)CCN1C(=O)Cn1cnc2cccnc21
QUERY: Sort entries by pIC50 from minimum to maximum value. Order the labels as requested and give them as your answer.
RESULT: II, IV, I, III

[I] CCCc1ncc(-c2nc(C(F)(F)F)sc2N2CCN(C(=O)Cn3nc(C)nc3C)[C@H](C)C2)cn1
[II] Cc1nc(C)n(CC(=O)N2CCN(c3sc(C(F)(F)F)nc3-c3ccc(C(F)(F)F)nc3)C[C@H]2C)n1
QUERY: // max by pIC50 over [ I , II ] Response format: the label of the selected entry.
RESULT: I
(I: 6.44, II: 6.07)

* * *

- experiment: in vitro
- condition_description: human, microsomes
outcome_measure: microsomal CLint at 1 µM (µL/min/mg)

The cases that follow already have their microsomal CLint at 1 µM on record.
smiles_input: C[C@@H]1CN(c2sc(CN(C)C)nc2-c2nc3ccccc3[nH]2)CCN1C(=O)Cn1cnc2cccnc21
microsomal CLint at 1 µM [µL/min/mg]: 44

smiles_input: CCCc1ncc(-c2nc(C(F)(F)F)sc2N2CCN(C(=O)Cn3nc(C)nc3C)[C@H](C)C2)cn1
microsomal CLint at 1 µM [µL/min/mg]: 80

smiles_input: CCOc1ccc(-c2nc(C(F)(F)F)sc2N2CCN(C(=O)Cn3nc(C)nc3C)[C@H](C)C2)cn1
microsomal CLint at 1 µM [µL/min/mg]: 66

[a] Cc1nc(-c2nc3ccccc3[nH]2)c(N2CCN(C(=O)Cn3cnc4cccnc43)[C@H](C)C2)s1
[b] CCOc1ncc(-c2nc(C(F)(F)F)sc2N2CCN(C(=O)Cn3nc(C)cc3C)[C@H](C)C2)cn1
[c] CCOc1ncc(-c2nc(C(F)(F)F)sc2N2CCN(C(=O)Cn3nccc3C)[C@H](C)C2)cn1
[d] C[C@@H]1CN(c2sc(C3COC3)nc2-c2nc3ccccc3[nH]2)CCN1C(=O)Cn1cnc2cccnc21
QUERY: Task for the reader: rank each entry by its microsomal CLint at 1 µM, from the minimum upward. Order the labels as requested and give them as your answer.
RESULT: a, d, c, b
(a: 23 µL/min/mg, d: 38 µL/min/mg, c: 65 µL/min/mg, b: 184 µL/min/mg)

* * *

- experiment: in vivo
- condition_description: Balb/c, mouse, po, 10 mg/kg
outcome_measure: bioavailability (%)
The figure you give is taken to be in %; do not add the unit.

QUERY: Assign bioavailability to the following record: `C[C@@H]1CN(c2scnc2-c2nc3ccccc3[nH]2)CCN1C(=O)Cn1cnc2cccnc21`
RESULT: 4

* * *

- experiment: Half life in BALB/c mouse at 1 mg/kg, iv and 10 mg/kg, po
- condition_description: in vivo
outcome_measure: half-life (min)
The figure you give is taken to be in min; do not add the unit.

QUERY: Assign half-life to the following record: `C[C@@H]1CN(c2scnc2-c2nc3ccccc3[nH]2)CCN1C(=O)Cn1cnc2cccnc21`
RESULT: 6

* * *

- experiment: Fractional unbound plasma concentration in Beagle dog at 0.5 mg/kg, iv and 2 mg/kg, po
outcome_measure: fraction unbound

[I] Cc1nc(C)n(CC(=O)N2CCN(c3sc(C(F)(F)F)nc3-c3cnc(OC(C)C)nc3)C[C@H]2C)n1
[II] CCOc1ncc(-c2nc(C(F)(F)F)sc2N2CCN(C(=O)Cn3nc(C)nc3C)[C@H](C)C2)cn1
QUERY: // max by fraction unbound over [ I , II ] Response format: the label of the selected entry.
RESULT: II

* * *

- target_system: Voltage-gated inwardly rectifying potassium channel KCNH2 (Homo sapiens)
- experiment: Inhibition of hERG expressed in CHO cells by Q patch-clamp method
Below, each entry is listed with its recorded IC50.
The figure you give is taken to be in µM; do not add the unit.

The cases that follow already have their IC50 on record.
smiles_input: Cc1ncc(-c2nc(C(F)(F)F)sc2N2CCN(C(=O)Cn3cnc4cccnc43)[C@H](C)C2)cn1
IC50, µM: 15

smiles_input: CCCc1ncc(-c2nc(C(F)(F)F)sc2N2CCN(C(=O)Cn3cnc4cccnc43)[C@H](C)C2)cn1
IC50, µM: 5.9

smiles_input: C[C@@H]1CN(c2sc(CN(C)C)nc2-c2nc3ccccc3[nH]2)CCN1C(=O)Cn1cnc2cccnc21
IC50, µM: 20

QUERY: Under Voltage-gated inwardly rectifying potassium channel KCNH2 (Homo sapiens): report IC50 of `COc1ccc(-c2nc(C(F)(F)F)sc2N2CCN(C(=O)Cn3cnc4cccnc43)[C@H](C)C2)cc1` .
RESULT: 8.8

QUERY: Under Voltage-gated inwardly rectifying potassium channel KCNH2 (Homo sapiens): report IC50 of `CCOc1ncc(-c2nc(C(F)(F)F)sc2N2CCN(C(=O)Cn3cnc4ccccc43)[C@H](C)C2)cn1` .
RESULT: 4.7

* * *

- target_system: hERG (Homo sapiens)
- Sequence (Q12809 whole entry): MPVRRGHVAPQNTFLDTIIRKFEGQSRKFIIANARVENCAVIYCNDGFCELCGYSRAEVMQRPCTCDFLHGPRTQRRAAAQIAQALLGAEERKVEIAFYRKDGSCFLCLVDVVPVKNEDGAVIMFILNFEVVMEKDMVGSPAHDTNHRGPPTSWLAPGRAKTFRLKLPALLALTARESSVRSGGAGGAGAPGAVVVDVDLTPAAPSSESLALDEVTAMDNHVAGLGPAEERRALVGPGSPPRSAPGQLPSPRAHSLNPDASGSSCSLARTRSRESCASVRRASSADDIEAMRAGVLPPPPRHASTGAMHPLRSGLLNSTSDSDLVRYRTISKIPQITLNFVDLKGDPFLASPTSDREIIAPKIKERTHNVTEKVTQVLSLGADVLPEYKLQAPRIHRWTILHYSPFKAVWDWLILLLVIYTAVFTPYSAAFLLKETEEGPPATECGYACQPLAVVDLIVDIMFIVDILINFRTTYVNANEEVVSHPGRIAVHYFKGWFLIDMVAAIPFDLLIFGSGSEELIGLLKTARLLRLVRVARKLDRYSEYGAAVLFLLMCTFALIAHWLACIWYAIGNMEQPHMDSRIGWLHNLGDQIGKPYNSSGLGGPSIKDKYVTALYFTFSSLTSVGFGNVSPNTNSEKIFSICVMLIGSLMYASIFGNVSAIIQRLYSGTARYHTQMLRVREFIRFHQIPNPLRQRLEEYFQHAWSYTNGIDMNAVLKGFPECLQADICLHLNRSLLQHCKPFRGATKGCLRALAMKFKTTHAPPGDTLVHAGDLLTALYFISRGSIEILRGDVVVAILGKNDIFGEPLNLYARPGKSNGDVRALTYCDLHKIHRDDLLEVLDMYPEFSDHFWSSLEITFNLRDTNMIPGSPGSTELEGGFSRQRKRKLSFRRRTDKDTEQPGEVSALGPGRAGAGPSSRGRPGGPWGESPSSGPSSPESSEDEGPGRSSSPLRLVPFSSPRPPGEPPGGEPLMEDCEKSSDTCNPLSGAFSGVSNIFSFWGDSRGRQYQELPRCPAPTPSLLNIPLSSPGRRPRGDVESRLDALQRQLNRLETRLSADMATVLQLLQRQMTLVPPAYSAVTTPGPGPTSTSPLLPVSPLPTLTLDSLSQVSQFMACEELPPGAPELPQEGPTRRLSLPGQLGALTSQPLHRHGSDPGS
- experiment: Inhibition of hERG expressed in CHO cells 10 uM at by Q patch-clamp method relative to control
outcome_measure: inhibition at 10 µM (%)
The figure you give is taken to be in %; do not add the unit.

The cases that follow already have their inhibition at 10 µM on record.
smiles_input: CCCc1ncc(-c2nc(C(F)(F)F)sc2N2CCN(C(=O)Cn3cnc4cccnc43)[C@H](C)C2)cn1
inhibition at 10 µM / %: 57

smiles_input: CCOc1ncc(-c2nc(C(F)(F)F)sc2N2CCN(C(=O)Cn3cnc4cccnc43)[C@H](C)C2)cn1
inhibition at 10 µM / %: 44

QUERY: Assign inhibition at 10 µM to the following record: `COc1ncc(-c2nc(C(F)(F)F)sc2N2CCN(C(=O)Cn3cnc4cccnc43)[C@H](C)C2)cn1`
RESULT: 19

QUERY: Assign inhibition at 10 µM to the following record: `C[C@@H]1CN(c2sc(CN(C)C)nc2-c2nc3ccccc3[nH]2)CCN1C(=O)Cn1cnc2cccnc21`
RESULT: 28

* * *

pIC50: −log10 of the molar value.
pIC50 tested on C-X-C chemokine receptor type 3 (Homo sapiens, UniProt P49682): recorded values
outcome_measure: pIC50

The cases that follow already have their pIC50 on record.
smiles_input: CCOc1ncc(-c2nc(C(F)(F)F)sc2N2CCN(C(=O)Cn3nccc3C)[C@H](C)C2)cn1
outcome_measure: pIC50
observed_measurement: 6.79
--
smiles_input: CCOc1ncc(-c2nc(C(F)(F)F)sc2N2CCN(C(=O)Cn3nc(C)cc3C)[C@H](C)C2)cn1
outcome_measure: pIC50
observed_measurement: 7.06
--
smiles_input: C[C@@H]1CN(c2sc(C3CC3)nc2-c2nc3ccccc3[nH]2)CCN1C(=O)Cn1cnc2cccnc21
outcome_measure: pIC50
observed_measurement: 6.13
--
smiles_input: CCOc1ncc(-c2nc(C(F)(F)F)sc2N2CCN(C(=O)Cn3cnc4cccnc43)[C@H](C)C2)cn1
outcome_measure: pIC50
observed_measurement: 7.70
--
smiles_input: CCOc1ncc(-c2nc(C(F)(F)F)sc2N2CCN(C(=O)Cn3c(=O)oc4ccccc43)[C@H](C)C2)cn1
outcome_measure: pIC50
observed_measurement: 7.00
--
smiles_input: Cc1nc(-c2nc3ccccc3[nH]2)c(N2CCN(C(=O)Cn3cnc4cccnc43)[C@H](C)C2)s1
outcome_measure: pIC50
observed_measurement: 5.98

[I] Cc1nc(C)n(CC(=O)N2CCN(c3sc(C(F)(F)F)nc3-c3cnc(N4CCCC4)nc3)C[C@H]2C)n1
[II] C[C@@H]1CN(c2sc(CN(C)C)nc2-c2nc3ccccc3[nH]2)CCN1C(=O)Cn1cnc2cccnc21
[III] CCCc1ncc(-c2nc(C(F)(F)F)sc2N2CCN(C(=O)Cn3nc(C)nc3C)[C@H](C)C2)cn1
[IV] C[C@@H]1CN(c2sc(Br)nc2-c2nc3ccccc3[nH]2)CCN1C(=O)Cn1cnc2cccnc21
[V] C[C@H]1CN(c2scnc2-c2nc3ccccc3[nH]2)CCN1C(=O)Cn1cnc2cccnc21
QUERY: Task for the reader: rank each entry by its pIC50, from the minimum upward. Order the labels as requested and give them as your answer.
RESULT: V, II, I, III, IV
(V: 5.10, II: 5.63, I: 6.28, III: 6.59, IV: 6.90)

[a] CCOc1ccc(-c2nc(C(F)(F)F)sc2N2CCN(C(=O)Cn3nc(C)nc3C)[C@H](C)C2)cn1
[b] CCOc1ncc(-c2nc(C(F)(F)F)sc2N2CCN(C(=O)Cn3nc(C)nc3C)[C@H](C)C2)cn1
QUERY: Which of these two has the smaller recorded pIC50: a or b ? Response format: the label of the selected entry.
RESULT: a
(a: 6.30, b: 6.76)

[P] CC[C@@H]1CN(c2scnc2-c2nc3ccccc3[nH]2)CCN1C(=O)Cn1cnc2cccnc21
[Q] C[C@@H]1CN(c2sc(C(F)(F)F)nc2-c2nc3ccccc3[nH]2)CCN1C(=O)Cn1cnc2cccnc21
QUERY: Which of these two has the smaller recorded pIC50: P or Q ? Response format: the label of the selected entry.
RESULT: P
